system: P. cepacia; test: Minimum inhibitory concentration, P. cepacia; format: cell-based, Pseudomonas cepacia
Non-standard residues stand in square brackets, D forms with d. Residues, ends and D or L forms follow the SMILES beside them. *: point of attachment. Myristoyl = CCCCCCCCCCCCCC(=O)*
Recorded endpoint: MIC(P. cepacia)

Return reported MIC(P. cepacia); argument: CCCCCCCCCCCCCC(=O)N[C@@H](CCCCN)C(=O)N[C@@H](CC(C)C)C(=O)N[C@@H](C)C(=O)N[C@@H](CCCCN)C(=O)N[C@@H](CCCCN)C(=O)N[C@H](CC(C)C)C(N)=O [P396, Myr-KLAKK-[L]^D-amide] (Myristoyl-KLAKK[dL]-NH2) ≤ 100 ppm

Return reported MIC(P. cepacia); argument: CCCCCCCCCCCCCC(=O)N[C@@H](CCCCN)C(=O)N[C@@H](CCCCN)C(=O)N[C@@H](C)C(=O)N[C@@H](CC(C)C)C(N)=O [P291, Myr-KKAL-amide] (Myristoyl-KKAL-NH2) ≤ 100 ppm

Return reported MIC(P. cepacia); argument: CCCCCCCCCCCCCC(=O)N[C@@H](CCCCN)C(=O)N[C@@H](CCCCN)C(=O)NCC(=O)N[C@@H](CC(C)C)C(=O)N[C@@H](CCCCN)C(N)=O [P374, Myr-KKGLK-amide] (Myristoyl-KKGLK-NH2) ≤ 100 ppm
